Below, each entry is listed alongside its reported photocatalytic hydrogen evolution rate.
# Assay text: photocatalytic hydrogen evolution rate (per 5 mg catalyst); higher = more photocatalytic H2 evolution; extreme values may be limits of the assay;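 also: aromatic molecules in triethylamine/methanol/water with Pt photoreduced in situ, irradiated 3 h under a 1 sun AM 1.5G solar simulator (350–1000 nm), H2 quantified by headspace gas chromatography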;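 also: listed molecule itself used as the photocatalyst at 5 mg per vial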
# Experimental parameters: catalyst mass (mg): 5; Pt cocatalyst (wt%): 3; sacrificial medium: triethylamine/methanol/water 1:1:1
Respond with the bare value in µmol/h.

Examples from the recorded data:
Smiles record: c1ccc(-c2cccc(-c3ccccc3)c2)cc1
Unit label: µmol/h
Experimental value: 0
--
Smiles record: COC(=O)c1ccnc(-c2cc(C(=O)OC)ccn2)c1
Unit label: µmol/h
Experimental value: 0
--
Smiles record: N#Cc1c2ccccc2cc2ccccc12
Unit label: µmol/h
Experimental value: 0.294

Q: // lookup photocatalytic hydrogen evolution rate for O=C(O)c1ccc(-c2ccccc2)cc1
Result: 0

Q: // lookup photocatalytic hydrogen evolution rate for Cc1cc(C#N)ncc1Br
Result: 0

Q: // lookup photocatalytic hydrogen evolution rate for Nc1c(Br)cnc(Cl)c1Br
Result: 0

Q: // lookup photocatalytic hydrogen evolution rate for Brc1c2ccccc2c(Br)c2ccccc12
Result: 0.0125

Q: // lookup photocatalytic hydrogen evolution rate for Cc1cc(C#N)c(C)cc1C#N
Result: 0

Q: // lookup photocatalytic hydrogen evolution rate for Nc1c(Br)cc2[nH]cnc2c1Br
Result: 0

Q: // lookup photocatalytic hydrogen evolution rate for Nc1cccc2ccccc12
Result: 0

====

# Assay text: photocatalytic hydrogen evolution rate (per 5 mg catalyst); higher = more photocatalytic H2 evolution; extreme values may be limits of the assay
# Experimental parameters: catalyst mass (mg): 5; Pt cocatalyst (wt%): 3; sacrificial medium: triethylamine/methanol/water 1:1:1
Observed property: photocatalytic hydrogen evolution rate (µmol/h)
Respond with the bare value in µmol/h.

Examples from the recorded data:
Smiles record: CC(=O)c1ccc(C#N)cc1
photocatalytic hydrogen evolution rate, µmol/h: 5.7
--
Smiles record: O=Cc1ccc(N(c2ccccc2)c2ccccc2)cc1
photocatalytic hydrogen evolution rate, µmol/h: 0.317
--
Smiles record: CN1C(=O)c2ccc3c4ccc5c6c(ccc(c7ccc(c2c37)C1=O)c64)C(=O)N(C)C5=O
photocatalytic hydrogen evolution rate, µmol/h: 0

Q: // lookup photocatalytic hydrogen evolution rate for COC(=O)c1ccc(C(=O)OC)c(N)c1
Result: 0.0112

Q: // lookup photocatalytic hydrogen evolution rate for N#CCc1nc2ccccc2s1
Result: 0

Origin of measurements: the supplement of paper PMC8372320
